Data provenance is the supplement of paper PMC10567573.

B1: WEE1 (parent)
chain: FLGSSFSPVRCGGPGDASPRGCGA

# Variants of: B1
# test name: protein stability index of a GFP-peptide fusion (GPS, HEK-293T) (PSI 1-6); higher = more stable;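 note: lentivirally expressed fusions sorted by FACS into six bins by GFP to DsRed ratio, PSI derived from sequencing read proportions per bin multiplied by bin number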
# run parameters: c terminus: a fixed tail appended
Please use 1.0 whenever protein stability index is not below 2, and 0.0 whenever it is.

G23A 1.0
C11P 1.0
G13E 0.0
D16Y 0.0
G12K 1.0
S4I 1.0
G15I 0.0
P14D 0.0
L2K 1.0
A24K 1.0
G21Q 1.0
S4E 1.0
P19A 1.0
G3Y 0.0
A24D 1.0
A17M 0.0
G3V 1.0
A24G 0.0
P14L 0.0
G13I 1.0
G23K 0.0
L2S 1.0
C22W 1.0
G21V 0.0
G13A 0.0
P8H 0.0
F6E 1.0
F6I 1.0
P14A 0.0
F1W 1.0
S7L 0.0
C22M 0.0
C22Y 1.0
V9R 1.0
C11K 0.0
P14V 0.0
S5I 0.0
P8S 1.0
G13W 0.0
F6A 1.0
S4R 0.0
S18E 1.0
S7A 0.0
C22N 0.0
C22K 1.0
G15E 0.0
C22D 0.0
P8F 1.0
G23C 1.0
G12A 0.0
C11H 1.0
G3F 1.0
C11W 0.0
S4V 0.0
G21H 0.0
G21P 0.0
G13D 0.0
S18K 1.0
G13F 0.0
S4N 1.0
G3R 1.0
G13S 1.0
A17Q 0.0
G21D 0.0
G13P 1.0
G12V 0.0
C11S 1.0
S7D 1.0
F1A 1.0
S5K 0.0
G13K 1.0
G15Y 1.0
G3W 1.0
L2M 1.0
G15C 0.0
